- TARGET_OR_TEST_SYSTEM: T1, BSA-conjugated human MS4A4A ECL2 peptide (amino acid residues 159-179) (human, conjugated to BSA (site not stated))
- T1 construct: also called MS4A4A-ECL2 BSA conjugated peptide; BSA-MS4A4A-ELC2 peptide
- T1 peptide: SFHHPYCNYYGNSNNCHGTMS
- EXPERIMENT_DESCRIPTION: ELISA, supernatant
MEASURE_NAME: binding result

- anti-MS4A4A antibody 4A-2 (antibody, V domains shown, murine hybridoma antibody) VH: QIQLVQSGPELKKPGETVKISCKASGYTFVDYEMNWVKQAPGKGLEWLGWINTYTGEPTYADDFQGRFAFSLVTSVSTAYLQINNLKHEDMATYLCTRNYYYGNGDVMDYWGQGTSVTVSS VL: QIVLTQSPAIMSASPGEKVTITCSASSSVSYIHWFQQKPGTSPKLWIYSTSNLASGVPARFSGSGSGTSYSLTISRMEAEDAATYYCQQRTGFPLTFGGGTQLEIK: binds
- anti-MS4A4A antibody 4A-15 (antibody, V domains shown, murine hybridoma antibody) VH: EIQLQQTGPDLVKPGASVKISCKASGYSFTDYVILWVKQSHGKTLEWIGHINPYYANSDYNVNFRGKATLTVDKSSSTAHMQLNSLTSEDSAVYYCVRYGSGMDYWGQGTSVTVSS VL: DVLMTQTPLSLPVSLGDQASISCRSSQSIVHSDGNTYLEWYLQKPGQSPKLLIYKVSNRFSGVPDRFSGSGSGTDFTLKISRVEAEDLGVYYCFQGSHFPLTFGAGTKLELK: binds
- anti-MS4A4A antibody 4A-7 (antibody, V domains shown, murine hybridoma antibody) VH: EIQLQQTGPELVKPGASVKISCKASGYSFTDYVMIWVKQSHGKSLEWIGNINPYYGSTSYNLKFKGKATLTVDKSSSTAYMQLKSLTSEDSAVYYCARYGYDALDNWGQGTSVTVSS VL: DVLLTQTPLSLPVSLGDQASISCRSSQSIVHSNGNTYLDWSLQKPGQSPKLLIYRVSNRFSGVPDRFSGSGSGTDFTLKISRVEAEDLGVYYCFQGSHVPLTFGAGTKLELK: binds
